IC50 values for Human sEH (hsEH) (Homo sapiens, UniProt P34913) compiled from several publications are listed below.
measurementName: IC50 (µM)

Example entries begin here.
Oc1ccc(/C=C/c2cc(O)cc(O)c2)cc1    6.8
O=C1OC2Cc3c(O)cc(OC4OCC(O)(CO)C4O)cc3OC2c2ccc(O)c(O)c21 (stereo not shown)    14.5
O=C1c2c(O)cc(O)cc2OC(c2cc(O)cc(O)c2)C1O (stereo not shown)    16.1
CC(=O)O[C@H]1[C@H](OC[C@H]2O[C@@H](Oc3c(-c4ccc(O)c(O)c4)oc4cc(O)cc(O)c4c3=O)[C@H](O)[C@@H](O)[C@@H]2O)O[C@@H](C)[C@H](O)[C@H]1O    9.5
Oc1ccc(Cc2ccccc2)cc1    151

P = O=c1c(O[C@@H]2O[C@H](CO)[C@@H](O)[C@H](O)[C@H]2O)c(-c2ccc(O)cc2)oc2cc(O)cc(O)c12
Q = CCCCOC(=O)[C@@]1(O)C[C@@H](O)[C@H](O)[C@H](OC(=O)/C=C/c2ccc(O)c(O)c2)C1
R = COc1cc(/C=C/C(=O)O[C@@H]2C[C@@](O)(C(=O)O)C[C@@H](O)[C@@H]2O)ccc1O
// ranking: key=IC50, reverse=True Your reply should list the labels following the order given in the request.
R, Q, P

a = COc1cc(C2Oc3c(OC)cc(CCCO)cc3C2CO[C@@H]2OC[C@@H](O)[C@H](O)[C@H]2O)ccc1O (stereo partly shown)
b = O=c1c(O)c(-c2ccc(O)cc2)oc2cc(O)cc(O)c12
Could you point out whether the larger IC50 belongs to a or to b ? Answer with the label corresponding to your selection.
a
(a: 36.9 µM, b: 6.8 µM)

I = COC(=O)[C@H](O)Cc1ccc(O)cc1
II = COc1cc2c(cc1OC)-c1cc3ccc(OC)c(OC)c3c[n+]1CC2
III = Oc1ccc(-c2ccc(F)cc2F)cc1
Please put the entries in order of rising IC50. Kindly provide the labels arranged according to the requested ordering.
II, I, III
(II: 29.6 µM, I: 52 µM, III: 108 µM)

a = C[C@H]1[C@H](C)CC[C@]2(C(=O)O)CC[C@]3(C)C(=CC[C@@H]4[C@@]5(C)C[C@@H](O)[C@H](O)C(C)(C)[C@@H]5CC[C@]43C)[C@H]12
b = COc1ccc2cc3[n+](cc2c1OC)CCc1cc2c(cc1-3)OCO2
// returns a or b , whichever has the lower IC50 Please respond with the label that marks your chosen entry.
b
(b: 33.4 µM, a: 51.3 µM)
